# ASSAY COMMENT: Maximum tolerated dose
# Assay type: in vivo
# CONDITIONS: in vivo; intravenous injection; read-out: Maximum Tolerated Dose Intravenous

| SUBSTANCE | MTD |
| --- | --- |
| Ac-RQIKIWFQNRRMKWKKCLRVRLASHLRKLRKRLL-NH2 [COG 112] | 28 mg/kg |

---

# ASSAY COMMENT: Maximum tolerated dose
# Type: in vivo
# CONDITIONS: in vivo, sc; subcutaneous injection; read-out: Maximum Tolerated Dose Subcutaneous

| SUBSTANCE | MTD |
| --- | --- |
| Ac-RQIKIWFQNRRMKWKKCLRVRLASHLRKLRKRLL-NH2 [COG 112] | > 100 mg/kg |

---

# ASSAY COMMENT: Maximum tolerated dose
# Assay type: in vivo
# CONDITIONS: in vivo, sc; subcutaneous injection; read-out: Maximum Tolerated Dose Subcutaneous
Where a SMILES comes first, the peptide text is derived from it. [ ]: non-standard residue; d: D form. Aib = CC(C)(N)C(=O)O
ASSAY READOUT: MTD

| COMPOUND | RESULT |
| --- | --- |
| CC(=O)N[C@@H](CC(C)C)C(=O)N[C@@H](CCCNC(=N)N)C(=O)N[C@H](C(=O)N[C@@H](CCCNC(=N)N)C(=O)N[C@@H](CC(C)C)C(=O)N[C@@H](C)C(=O)N[C@@H](CO)C(=O)N[C@@H](Cc1c[nH]cn1)C(=O)N[C@@H](CC(C)C)C(=O)N[C@@H](CCCNC(=N)N)C(=O)N[C@@H](CCCCN)C(=O)N[C@@H](CC(C)C)C(=O)N[C@@H](CCCNC(=N)N)C(=O)N[C@@H](CCCCN)C(=O)N[C@@H](CCCNC(=N)N)C(=O)N[C@@H](CC(C)C)C(=O)N[C@@H](CC(C)C)C(N)=O)C(C)C | > 100 mg/kg |
| CC(=O)NC(=N)NCCC[C@H](NC(=O)[C@H](CCCCN)NC(=O)[C@H](CCCNC(=N)N)NC(=O)[C@H](CC(C)C)NC(=O)[C@H](CCCCN)NC(=O)[C@H](CCCNC(=N)N)NC(=O)[C@H](CC(C)C)NC(=O)C(C)(C)NC(=O)[C@H](CO)NC(=O)[C@H](C)NC(=O)[C@H](CC(C)C)NC(=O)[C@H](CCCNC(=N)N)NC(=O)[C@@H](NC(=O)[C@H](CCCNC(=N)N)NC(=O)[C@H](CC(C)C)NC(C)=O)C(C)C)C(=O)N[C@@H](CC(C)C)C(=O)N[C@@H](CC(C)C)C(N)=O [COG 345] (Ac-LRVRLAS[Aib]LRKLRKR(Ac)LL-NH2) | > 150 mg/kg |

---

# ASSAY COMMENT: Maximum tolerated dose
# Type: in vivo
# CONDITIONS: in vivo; intravenous injection; read-out: Maximum Tolerated Dose Intravenous
# Text: To fully evaluate the use of ApoE analogs as therapeutic compounds, the margin of safety should also be determined. Towards that end, we determined the maximum tolerated dose of COG 112, COG 248, and COG 345 when administered by intravenous and subcutaneous injection.
ASSAY READOUT: MTD (mg/kg)

| MOLECULE | RESULT NUMBER |
| --- | --- |
| CC(=O)N[C@@H](CC(C)C)C(=O)N[C@@H](CCCNC(=N)N)C(=O)N[C@H](C(=O)N[C@@H](CCCNC(=N)N)C(=O)N[C@@H](CC(C)C)C(=O)N[C@@H](C)C(=O)N[C@@H](CO)C(=O)N[C@@H](Cc1c[nH]cn1)C(=O)N[C@@H](CC(C)C)C(=O)N[C@@H](CCCNC(=N)N)C(=O)N[C@@H](CCCCN)C(=O)N[C@@H](CC(C)C)C(=O)N[C@@H](CCCNC(=N)N)C(=O)N[C@@H](CCCCN)C(=O)N[C@@H](CCCNC(=N)N)C(=O)N[C@@H](CC(C)C)C(=O)N[C@@H](CC(C)C)C(N)=O)C(C)C [COG 133] | 16 |
